target: Fibroblast growth factor receptor 3 (Homo sapiens, UniProt P22607); experiment: Inhibition of FGFR3 (unknown origin)
Sequence (P22607 whole entry): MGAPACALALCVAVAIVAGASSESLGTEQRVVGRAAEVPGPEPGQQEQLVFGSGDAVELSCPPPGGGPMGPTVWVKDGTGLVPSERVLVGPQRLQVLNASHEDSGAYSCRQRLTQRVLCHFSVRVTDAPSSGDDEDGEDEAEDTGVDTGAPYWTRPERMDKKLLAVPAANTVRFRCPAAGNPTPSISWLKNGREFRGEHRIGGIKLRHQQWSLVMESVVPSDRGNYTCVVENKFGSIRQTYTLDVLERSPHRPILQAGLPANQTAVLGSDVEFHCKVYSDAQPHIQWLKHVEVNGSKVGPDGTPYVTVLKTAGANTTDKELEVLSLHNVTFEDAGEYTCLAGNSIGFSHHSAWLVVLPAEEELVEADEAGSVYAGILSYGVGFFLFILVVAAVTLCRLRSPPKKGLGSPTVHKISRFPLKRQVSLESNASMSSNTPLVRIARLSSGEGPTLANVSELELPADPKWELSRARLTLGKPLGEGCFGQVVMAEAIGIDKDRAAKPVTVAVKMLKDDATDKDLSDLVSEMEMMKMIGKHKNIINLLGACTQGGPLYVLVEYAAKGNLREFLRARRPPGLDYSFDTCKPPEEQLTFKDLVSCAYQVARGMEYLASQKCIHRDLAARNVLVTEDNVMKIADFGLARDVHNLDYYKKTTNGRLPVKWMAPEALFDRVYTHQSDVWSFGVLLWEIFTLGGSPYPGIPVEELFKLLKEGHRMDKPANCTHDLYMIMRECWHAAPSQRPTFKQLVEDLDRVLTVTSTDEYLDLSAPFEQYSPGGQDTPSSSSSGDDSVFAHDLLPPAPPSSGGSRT
observed_property: IC50 (nM)
One number for each entry, in nM.

Qu. Record lookup: for Fibroblast growth factor receptor 3 (Homo sapiens, UniProt P22607), what IC50 belongs to "C=CC(=O)N[C@H]1CCOC[C@H]1Nc1ncc2cc(-c3c(Cl)c(OC)cc(OC)c3Cl)ccc2n1" ?
Ans. 150
